- PROTOCOL_SUMMARY: Tmax in rat at 4 mg/kg, po measured for 24 hrs by LC-MS/MS analysis
- Format: ADME, organism-based
- COND: in vivo
TEST_READOUT: Tmax
Write down the value, and be sure its unit follows.

Can you share its Tmax? I mean this molecule: CCOc1c([C@H](C)n2nc(C)c3c(N)ncnc32)cc(Cl)c(F)c1[C@@H]1CNC(=O)C1 18 min

====

- PROTOCOL_SUMMARY: Oral bioavailability in Beagle dog at 4 mg/kg measured for 24 hrs by LC-MS/MS analysis
- Assay type: ADME, organism-based, Canis lupus familiaris
- COND: in vivo
TEST_READOUT: bioavailability

Can you share its bioavailability? I mean this compound: CCOc1c([C@H](C)n2nc(C)c3c(N)ncnc32)cc(Cl)c(F)c1[C@@H]1CNC(=O)C1 [PARSACLISIB] 100%

====

- TARGET_ENTITY: UniProt Q12809
- PROTOCOL_SUMMARY: Inhibition of human ERG channel at 30 uM incubated for 24 hrs in presence of [3H] Dofetilide by filter binding assay based scintillation counting analysis

# COMPOUND, TARGET_ENTITY, inhibition (INH)
data = [
    ("COc1c([C@H](C)Nc2ncnc(N)c2C#N)cc(Cl)c(C)c1-c1ccc(C(=O)N(C)C)cn1", "UniProt Q12809", "Not Active"),
    ("COc1c([C@H](C)n2nc(C)c3c(N)ncnc32)cc(Cl)c(C)c1C1CNC(=O)C1 (some centres undefined)", "UniProt Q12809", "Not Active"),
    ("COc1c([C@H](C)n2nc(C)c3c(N)ncnc32)cc(Cl)c(C#N)c1C1CN(C[C@H](C)O)C1", "UniProt Q12809", "Active"),
    ("COc1c([C@H](C)Nc2ncnc(N)c2C#N)cc(Cl)c(C)c1-c1cncc(S(C)(=O)=O)c1", "UniProt Q12809", "Active"),
]

====

- PROTOCOL_SUMMARY: Tmax in cynomolgus monkey at 4 mg/kg, po measured for 24 hrs by LC-MS/MS analysis
- Assay type: ADME, organism-based, Macaca fascicularis
- COND: in vivo
TEST_READOUT: Tmax (h)
Your answer is read as h, so omit the unit and give the number.

Can you share its Tmax? I mean this compound: CCOc1c([C@H](C)n2nc(C)c3c(N)ncnc32)cc(Cl)c(F)c1[C@@H]1CNC(=O)C1 2.5

====

- TARGET_ENTITY: Voltage-gated inwardly rectifying potassium channel KCNH2 (Homo sapiens, UniProt Q12809)
- Sequence (Q12809 whole entry): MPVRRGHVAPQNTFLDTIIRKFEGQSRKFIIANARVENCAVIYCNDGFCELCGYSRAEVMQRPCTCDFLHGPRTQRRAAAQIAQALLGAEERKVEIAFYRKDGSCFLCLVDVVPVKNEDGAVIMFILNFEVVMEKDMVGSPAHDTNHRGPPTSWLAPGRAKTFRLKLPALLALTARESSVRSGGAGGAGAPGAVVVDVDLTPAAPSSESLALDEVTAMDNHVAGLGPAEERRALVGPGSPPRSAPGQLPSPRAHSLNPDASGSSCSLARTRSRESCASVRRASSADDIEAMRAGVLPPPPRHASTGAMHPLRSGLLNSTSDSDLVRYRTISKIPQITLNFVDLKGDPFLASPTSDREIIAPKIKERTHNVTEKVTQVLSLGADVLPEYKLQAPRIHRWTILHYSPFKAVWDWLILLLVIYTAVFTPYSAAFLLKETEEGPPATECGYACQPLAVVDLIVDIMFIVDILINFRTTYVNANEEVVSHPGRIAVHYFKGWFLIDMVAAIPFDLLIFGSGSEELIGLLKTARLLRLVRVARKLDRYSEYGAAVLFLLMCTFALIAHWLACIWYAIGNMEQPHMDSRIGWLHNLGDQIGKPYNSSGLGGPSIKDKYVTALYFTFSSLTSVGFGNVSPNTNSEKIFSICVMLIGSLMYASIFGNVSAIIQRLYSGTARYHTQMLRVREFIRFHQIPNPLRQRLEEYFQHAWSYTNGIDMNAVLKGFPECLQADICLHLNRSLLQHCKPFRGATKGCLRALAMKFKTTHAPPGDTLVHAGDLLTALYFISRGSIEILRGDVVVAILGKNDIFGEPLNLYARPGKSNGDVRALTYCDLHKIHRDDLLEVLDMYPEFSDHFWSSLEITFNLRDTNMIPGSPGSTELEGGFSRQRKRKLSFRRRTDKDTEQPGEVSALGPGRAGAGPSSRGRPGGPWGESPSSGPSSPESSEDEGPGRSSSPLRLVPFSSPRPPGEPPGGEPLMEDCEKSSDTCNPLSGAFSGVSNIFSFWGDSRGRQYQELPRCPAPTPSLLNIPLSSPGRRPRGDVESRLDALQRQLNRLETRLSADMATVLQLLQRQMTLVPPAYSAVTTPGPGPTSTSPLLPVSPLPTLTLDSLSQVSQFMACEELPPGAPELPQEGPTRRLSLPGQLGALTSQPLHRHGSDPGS
- PROTOCOL_SUMMARY: Inhibition of human ERG expressed in HEK293 cells by voltage patch clamp assay
TEST_READOUT: pIC50
Scale: negative log10 of molar concentration, which is what pIC50 denotes.

Can you share its pIC50? I mean this compound: CCOc1c([C@H](C)n2nc(C)c3c(N)ncnc32)cc(Cl)c(F)c1[C@@H]1CNC(=O)C1 4.12

====

- TARGET_ENTITY: Phosphatidylinositol 4,5-bisphosphate 3-kinase catalytic subunit beta isoform (Homo sapiens, UniProt P42338)
- Sequence (P42338 whole entry, canonical isoform): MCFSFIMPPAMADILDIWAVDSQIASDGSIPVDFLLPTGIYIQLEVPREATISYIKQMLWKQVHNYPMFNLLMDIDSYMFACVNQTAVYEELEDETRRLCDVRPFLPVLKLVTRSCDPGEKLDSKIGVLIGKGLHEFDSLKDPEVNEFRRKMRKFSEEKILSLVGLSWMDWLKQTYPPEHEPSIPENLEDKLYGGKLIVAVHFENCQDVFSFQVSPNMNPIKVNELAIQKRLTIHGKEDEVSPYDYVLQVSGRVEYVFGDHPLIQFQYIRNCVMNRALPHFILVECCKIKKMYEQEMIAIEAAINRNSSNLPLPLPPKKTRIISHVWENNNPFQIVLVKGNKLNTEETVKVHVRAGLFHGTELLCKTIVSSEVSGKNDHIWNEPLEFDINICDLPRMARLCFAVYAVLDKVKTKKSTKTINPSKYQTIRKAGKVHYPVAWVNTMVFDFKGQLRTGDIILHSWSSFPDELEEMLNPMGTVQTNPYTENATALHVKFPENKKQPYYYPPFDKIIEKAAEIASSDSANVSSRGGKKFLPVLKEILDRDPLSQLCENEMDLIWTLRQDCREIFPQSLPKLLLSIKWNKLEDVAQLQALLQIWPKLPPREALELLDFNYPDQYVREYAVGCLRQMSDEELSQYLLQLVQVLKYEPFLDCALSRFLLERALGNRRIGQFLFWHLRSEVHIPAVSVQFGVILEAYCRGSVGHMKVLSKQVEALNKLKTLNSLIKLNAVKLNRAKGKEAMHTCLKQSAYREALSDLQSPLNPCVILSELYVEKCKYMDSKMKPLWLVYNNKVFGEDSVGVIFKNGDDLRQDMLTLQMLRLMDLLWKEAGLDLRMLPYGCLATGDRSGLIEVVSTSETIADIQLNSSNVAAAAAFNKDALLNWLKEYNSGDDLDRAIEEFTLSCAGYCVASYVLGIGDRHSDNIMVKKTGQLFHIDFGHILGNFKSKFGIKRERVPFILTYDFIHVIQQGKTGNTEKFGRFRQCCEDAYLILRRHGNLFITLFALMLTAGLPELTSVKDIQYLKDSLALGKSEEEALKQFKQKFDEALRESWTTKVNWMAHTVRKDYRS
- PROTOCOL_SUMMARY: Inhibition of PI3Kbeta (unknown origin) using D-myophosphatidylinositol 4,5-bisphosphate as substrate incubated for 120 mins by [gamma-33P]-ATP based scintillation counting method
TEST_READOUT: IC50

Can you share its IC50? I mean this compound: CCOc1c([C@H](C)n2nc(C)c3c(N)ncnc32)cc(Cl)c(F)c1[C@@H]1CNC(=O)C1 [PARSACLISIB] > 20 µM

====

- PROTOCOL_SUMMARY: Volume of distribution at steady state in rat at 4 mg/kg, iv measured for 24 hrs by LC-MS/MS analysis
- Format: ADME, organism-based
- COND: in vivo, read-out: Vdss
TEST_READOUT: Vd (L/kg)
Your answer is read as L/kg, so omit the unit and give the number.

Can you share its Vd? I mean this molecule: CCOc1c([C@H](C)n2nc(C)c3c(N)ncnc32)cc(Cl)c(F)c1[C@@H]1CNC(=O)C1 1.54

====

- TARGET_ENTITY: Phosphatidylinositol 4,5-bisphosphate 3-kinase catalytic subunit gamma isoform (Homo sapiens, UniProt P48736)
- Sequence (P48736 whole entry, canonical isoform): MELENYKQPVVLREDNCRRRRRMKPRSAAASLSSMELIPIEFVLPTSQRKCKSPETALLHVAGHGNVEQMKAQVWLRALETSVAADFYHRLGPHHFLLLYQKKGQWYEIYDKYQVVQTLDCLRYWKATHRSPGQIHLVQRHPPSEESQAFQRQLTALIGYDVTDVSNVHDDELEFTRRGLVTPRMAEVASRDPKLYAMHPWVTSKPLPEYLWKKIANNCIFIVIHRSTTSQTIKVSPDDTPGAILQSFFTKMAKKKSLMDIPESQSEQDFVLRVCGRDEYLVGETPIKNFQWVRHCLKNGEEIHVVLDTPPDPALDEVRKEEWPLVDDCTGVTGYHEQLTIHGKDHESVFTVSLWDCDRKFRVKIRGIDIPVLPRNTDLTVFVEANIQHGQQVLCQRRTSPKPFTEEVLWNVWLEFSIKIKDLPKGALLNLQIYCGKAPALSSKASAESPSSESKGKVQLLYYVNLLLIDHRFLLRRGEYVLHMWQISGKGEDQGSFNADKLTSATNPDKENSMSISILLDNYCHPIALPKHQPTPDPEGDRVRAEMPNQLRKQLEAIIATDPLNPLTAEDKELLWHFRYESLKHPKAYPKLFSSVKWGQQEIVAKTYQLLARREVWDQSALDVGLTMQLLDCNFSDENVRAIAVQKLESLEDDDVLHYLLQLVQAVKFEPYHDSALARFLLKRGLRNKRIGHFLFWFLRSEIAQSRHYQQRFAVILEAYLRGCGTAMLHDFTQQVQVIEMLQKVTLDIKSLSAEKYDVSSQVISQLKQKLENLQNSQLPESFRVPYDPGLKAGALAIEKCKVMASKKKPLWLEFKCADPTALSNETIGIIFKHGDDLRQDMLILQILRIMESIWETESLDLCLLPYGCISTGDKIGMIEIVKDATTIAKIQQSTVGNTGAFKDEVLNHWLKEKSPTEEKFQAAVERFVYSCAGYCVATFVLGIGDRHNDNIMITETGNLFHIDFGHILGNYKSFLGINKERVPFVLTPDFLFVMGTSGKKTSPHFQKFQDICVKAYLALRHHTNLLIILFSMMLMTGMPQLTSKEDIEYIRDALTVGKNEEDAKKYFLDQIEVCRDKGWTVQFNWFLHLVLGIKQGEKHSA
- PROTOCOL_SUMMARY: Inhibition of PI3Kgamma (unknown origin) using D-myophosphatidylinositol 4,5-bisphosphate as substrate incubated for 120 mins by [gamma-33P]-ATP based scintillation counting method
pIC50: −log10 of the molar value.
TEST_READOUT: pIC50

Can you share its pIC50? I mean this compound: CCOc1c([C@H](C)n2nc(C)c3c(N)ncnc32)cc(Cl)c(F)c1[C@@H]1CNC(=O)C1 < 5.00

====

- Test system: SU-DHL-6
- PROTOCOL_SUMMARY: Cytotoxicity against human SUDHL6 cells assessed as reduction in cell viability incubated for 4 days by celltiter glo luminescent assay
- Type: functional, cell-based
- COND: SU-DHL-6, 96 h
Readings of pIC50 for the listed molecules
Scale: negative log10 of molar concentration, which is what pIC50 denotes.

Worked cases, answers included:
# MOLECULE, pIC50
records = [
    ("C[C@H](Nc1ncnc2[nH]cnc12)c1cc(Cl)c2cccnc2c1-c1cccc(F)c1", 6.85),
    ("CCOc1c([C@H](C)n2nc(C)c3c(N)ncnc32)cc(Cl)c(C)c1C1CNC(=O)C1 (stereo not given in full)", 8.68),
    ("COc1c([C@H](C)Nc2ncnc3[nH]cnc23)cc(Cl)c(C)c1-c1ccc(S(C)(=O)=O)cc1", 6.77),
    ("COc1c([C@H](C)n2nc(C)c3c(N)ncnc32)cc(Cl)c(C)c1C1CNC(=O)C1 (stereo not given in full)", 7.89),
]

Moving on to another molecule below.
Can you share its pIC50? I mean this molecule: Cc1c(Cl)cc(C(C)Nc2ncnc3[nH]cnc23)c(-c2cccc(F)c2)c1C#N (racemic) 5.89

====

- Test system: SU-DHL-6
- PROTOCOL_SUMMARY: Cytotoxicity against human SUDHL6 cells assessed as reduction in cell viability incubated for 4 days by celltiter glo luminescent assay
- Type: functional, cell-based
- COND: SU-DHL-6, 96 h
Readings of log10 of IC50 for the listed compounds
Plainly stated, the numbers are log10 of IC50 given in nM.

Worked cases, answers included:
# COMPOUND, NUMERIC_READOUT
measured = [
    ("COc1c([C@H](C)n2nc(C)c3c(N)ncnc32)cc(Cl)c(C#N)c1C1CN(C[C@H](C)O)C1", 0.38),
    ("COc1c(C(C)n2ncc3c(N)ncnc32)cc(Cl)c(C)c1-c1ccnc(C(=O)N(C)C)c1 (racemic)", 2.92),
    ("COc1c([C@H](C)n2nc(C)c3c(N)ncnc32)cc(Cl)c(C)c1-c1ccnc(C(=O)N(C)C)c1", 0.87),
    ("CC(Nc1ncnc2[nH]cnc12)c1ccc2cccnc2c1-c1cccc(F)c1 (racemic)", 3.26),
    ("CCOc1c([C@H](C)n2nc(C)c3c(N)ncnc32)cc(Cl)c(F)c1[C@@H]1CNC(=O)C1", 0.20),
    ("C[C@H](Nc1ncnc2[nH]cnc12)c1cc(Cl)c2ccnnc2c1-c1cccc(F)c1", 1.86),
    ("COc1c([C@H](C)Nc2ncnc(N)c2C#N)cc(Cl)c(C)c1-c1ccc(C(=O)N(C)C)cn1", 1.32),
    ("COc1c([C@H](C)Nc2ncnc3[nH]cnc23)cc(Cl)c(C)c1-c1cnn(C)c1", 2.00),
]

Moving on to another compound below.
Give the reported log10 of IC50 for COc1c([C@H](C)Nc2ncnc(N)c2C#N)cc(Cl)c(C)c1-c1cncc(S(C)(=O)=O)c1 (system: SU-DHL-6). 0.49

====

- PROTOCOL_SUMMARY: Oral bioavailability in rat at 4 mg/kg measured for 24 hrs by LC-MS/MS analysis
- Assay type: ADME, organism-based
- COND: in vivo
TEST_READOUT: bioavailability (%)
Your answer is read as %, so omit the unit and give the number.

Can you share its bioavailability? I mean this molecule: CCOc1c([C@H](C)n2nc(C)c3c(N)ncnc32)cc(Cl)c(F)c1[C@@H]1CNC(=O)C1 74

====

Readings of IC50 for the listed compounds
- Test system: Pfeiffer
- PROTOCOL_SUMMARY: Cytotoxicity against human Pfeiffer cells assessed as reduction in cell viability incubated for 4 days by [3H]-thymidine incorporation based liquid scintillation counter method
- Format: functional
Your answer is read as nM, so omit the unit and give the number.

# COMPOUND, TARGET_ENTITY, IC50 (nM)
rows = [
    ("COc1c([C@H](C)Nc2ncnc3[nH]cnc23)cc(Cl)c(C)c1-c1cncc(S(C)(=O)=O)c1", "Pfeiffer", 9.5),
    ("CC(Nc1ncnc2[nH]cnc12)c1ccc2cccnc2c1-c1cccc(F)c1 (racemic)", "Pfeiffer", 490),
    ("COc1c([C@H](C)Nc2ncnc3[nH]cnc23)cc(Cl)c(C)c1-c1cnn(C)c1", "Pfeiffer", 120),
    ("Cc1c(Cl)cc(C(C)Nc2ncnc3[nH]cnc23)c(-c2cccc(F)c2)c1-c1cnn(C)c1 (racemic)", "Pfeiffer", 8.7),
    ("CCOc1c([C@H](C)n2nc(C)c3c(N)ncnc32)cc(Cl)c(C)c1C1CNC(=O)C1 (some centres undefined)", "Pfeiffer", 4.8),
]

Can you share its IC50? I mean this compound: COc1c([C@H](C)n2nc(C)c3c(N)ncnc32)cc(Cl)c(C#N)c1C1CN(C[C@H](C)O)C1 1.5

Follow-up item: CCOc1c([C@H](C)n2nc(C)c3c(N)ncnc32)cc(Cl)c(C#N)c1C1CNC(=O)C1 (some centres undefined) 1.7

Follow-up item: COc1c([C@H](C)n2nc(C)c3c(N)ncnc32)cc(Cl)c(C)c1-c1ccnc(C(=O)N(C)C)c1 8.6

Follow-up item: C[C@H](Nc1ncnc2[nH]cnc12)c1cc(Cl)c2ccnnc2c1-c1cccc(F)c1 26

Follow-up item: COc1c([C@H](C)Nc2ncnc3[nH]cnc23)cc(Cl)c(C)c1-c1ccc(S(C)(=O)=O)cc1 130

Follow-up item: COc1c([C@H](C)n2nc(C)c3c(N)ncnc32)cc(Cl)c(C)c1C1CNC(=O)C1 (some centres undefined) 51

Follow-up item: Cc1c(Cl)cc(C(C)Nc2ncnc3[nH]cnc23)c(-c2cccc(F)c2)c1C#N (racemic) 660

Follow-up item: COc1c([C@H](C)Nc2ncnc(N)c2C#N)cc(Cl)c(C)c1-c1ccc(C(=O)N(C)C)cn1 17

Follow-up item: Cc1csc2nc([C@H](C)Nc3ncnc4[nH]cnc34)c(-c3cccc(F)c3)c(=O)n12 [DEZAPELISIB] 14

Follow-up item: CCOc1c([C@H](C)n2nc(C)c3c(N)ncnc32)cc(Cl)c(F)c1[C@@H]1CNC(=O)C1 [PARSACLISIB] 2.5

Follow-up item: COc1c(C(C)n2nc(C)c3c(N)ncnc32)cc(Cl)c(C)c1C1CCN(C)CC1 (racemic) 11

Follow-up item: C[C@H](Nc1ncnc2[nH]cnc12)c1cc(Cl)c2cccnc2c1-c1cccc(F)c1 50

Follow-up item: COc1c(C(C)n2ncc3c(N)ncnc32)cc(Cl)c(C)c1-c1ccnc(C(=O)N(C)C)c1 (racemic) 610

Follow-up item: COc1c([C@H](C)Nc2ncnc(N)c2C#N)cc(Cl)c(C)c1-c1cncc(S(C)(=O)=O)c1 3.4

Attribution: ChEMBL document CHEMBL4406913
